Entries and their measured melting point follow.

COMPOUND | melting point
Fc1ccc(/C=C/c2nc(COc3cccc(CCCn4ccnn4)c3)co2)cc1 | 105 to 106 °C
OC[C@@H](O)Cc1nccn1CCCCc1ccc(OCc2coc(/C=C/c3ccc(F)cc3F)n2)cc1 | 106 to 108 °C
OCC(O)Cc1nccn1CCCCc1ccc(OCc2coc(/C=C/c3ccc(F)cc3)n2)cc1 (centres unmarked) | 114 to 116 °C
OCCc1nccn1CCCCc1ccc(OCc2coc(/C=C/c3ccc(F)cc3F)n2)cc1 | 93 to 95 °C
OCC(O)Cc1nccn1CCCCc1ccc(OCc2coc(/C=C/c3ccc(F)cc3F)n2)cc1 (centres unmarked) | 126 to 128 °C
OCCc1nccn1CCCc1ccc(OCc2coc(/C=C/c3ccc(F)cc3F)n2)cc1 | 94 to 96 °C
Cc1ccc(/C=C/c2nc(COc3ccc(CCCCn4ccnc4CCO)cc3)co2)cc1 | 108 to 109 °C
OCC(O)Cc1nccn1CCCCc1ccc(OCc2coc(/C=C/c3ccc(C(F)(F)F)cc3)n2)cc1 (centres unmarked) | 142 to 143 °C

----------
Entries and their measured melting point follow.
READOUT_LABEL: melting point

COMPOUND | READOUT_LABEL | MEASURED
OCCc1nccn1CCCCc1ccc(OCc2coc(/C=C/c3c(F)cccc3F)n2)cc1 [Example 21] | melting point | 106 to 107 °C
CCc1ccc(/C=C/c2nc(COc3ccc(CCCCn4ccnc4CCO)cc3)co2)cc1 [Example 13] | melting point | 94 to 95 °C
Fc1ccc(/C=C/c2nc(COc3cccc(CCCn4ccnn4)c3)co2)c(F)c1 [Example 8] | melting point | 89 to 90 °C
Fc1ccc(/C=C/c2nc(COc3ccc(CCCCn4ccnn4)cc3)co2)c(F)c1 [Example 7] | melting point | 115 to 117 °C
Fc1ccc(/C=C/c2nc(COc3ccc(CCCCn4ccnn4)cc3)co2)cc1 [Example 2] | melting point | 124 to 125 °C
FC(F)(F)c1ccc(/C=C/c2nc(COc3ccc(CCCn4ccnn4)cc3)co2)cc1 [Example 5] | melting point | 157 to 158 °C
OCC(O)Cc1nccn1CCCCc1ccc(OCc2coc(/C=C/c3c(F)cccc3F)n2)cc1 (centres unmarked) [Example 28] | melting point | 123 to 125 °C
OCCc1nccn1CCCCc1ccc(OCc2coc(/C=C/c3ccc(Br)cc3)n2)cc1 [Example 16] | melting point | 149 to 150 °C
Cc1ccccc1/C=C/c1nc(COc2ccc(CCCCn3ccnc3CCO)cc2)co1 [Example 12] | melting point | 91 to 93 °C
Cc1cccc(/C=C/c2nc(COc3ccc(CCCCn4ccnc4CC(O)CO)cc3)co2)c1 (centres unmarked) [Example 22] | melting point | 102 to 104 °C
Cc1cccc(/C=C/c2nc(COc3ccc(CCCCn4ccnc4CCO)cc3)co2)c1 [Example 11] | melting point | 109 to 111 °C
OC[C@H](O)Cc1nccn1CCCCc1ccc(OCc2coc(/C=C/c3ccc(F)cc3F)n2)cc1 [Example 29] | melting point | 104 to 106 °C
OCCc1nccn1CCCCc1ccc(OCc2coc(/C=C/c3ccc(Cl)cc3)n2)cc1 [Example 15] | melting point | 127 to 128 °C
OCC(O)Cc1nccn1CCCc1cccc(OCc2coc(/C=C/c3ccc(C(F)(F)F)cc3)n2)c1 (centres unmarked) [Example 25] | melting point | 102 to 104 °C
Cc1ccc(/C=C/c2nc(COc3ccc(CCCCn4ccnn4)cc3)co2)cc1 [Example 1] | melting point | 154 to 155 °C
OCCc1nccn1CCCCc1ccc(OCc2coc(/C=C/c3ccc(F)cc3)n2)cc1 [Example 14] | melting point | 130 to 132 °C
FC(F)(F)c1ccc(/C=C/c2nc(COc3cccc(CCCn4ccnn4)c3)co2)cc1 [Example 6] | melting point | 115 to 116 °C
